- EXPERIMENTAL DETAILS: soluble on expression in E. coli; label from the status in PepcDB or PDB records
MEASURE: soluble on expression in E. coli

[[record]]
seq = "LKPHIAVAISGSIYNEAVIKEAFHIAQKEHAKFTAIYIDVFEKNRQYKDSQKQVHQHLMLAKSLGAKVKVVYSQTVALGLDEWCKNQDVTKLIIGQHIRNKWRDFFNTPLIDHLMSFEHS"
result = "not soluble"

[[record]]
seq = "MGSDKIHHHHHHMLLTDLVTPPDTALCAAAEEMARMASDPFLYNHVSRSYIFGALAARATGTQYDPELFYIAAMLHDLGLTETYMAEDRFEVDAAEAAAKFLAAQNVEQSRIDRVWDAIALHTTFSIPQKKSPEAALVQIGAGLDVGVMPHDHITPEVMEQVLDAYPRLGFKKAMEQALIKVYAAKPMTAMHNFGADVAHRHVPDFHPPHFCDVLHGADFPE"
result = "not soluble"


###

- EXPERIMENTAL DETAILS: soluble on expression in E. coli; label from the status in PepcDB or PDB records
MEASURE: soluble on expression in E. coli

[[record]]
seq = "MSLETINNSAKKQPGLYISGQYKPSVSVFSNFSVKETNVPTKQLIALKKDINSVAVGSNATTGISNPGNFTIPYTAEFQDNVANFNGAVGYSFPDSLRIEIEGFHEKFDVKNPGGYTQVKDAYRYFALARDLKDGFFEPKAEDTGVYHTVMKNDGLSILSTMVNVCYDFSVDELPVLPYICAGMGINAIEFFDALHVKFAYQGKLGISYQLFTKVNLFLDGYYHQVIGNQFKNLNVNHVYTLKESPKVTSAVATLDIAYFGGEVGIRFTFEGHHHHHH"
result = "not soluble"

[[record]]
seq = "MGSDKIHHHHHHMDTAPLLPSSIRDQFTREVVYLNTATCGLPPRVAHEATLAVERDRARGRLTLDIAHQAVERSRAAFARLVGVPVSRVAVGSQASFFVGLVAASLPPGATVVVAEEDFTSVTYPFLAATGRGVTVRPVPLDRIIDAVDTSVDLVSVSVVQSADGRIVDVPALLDAAATHGARVLLDTTQSSGWLPIPADRVDYLVCSAYKWLLGPRGACFFAGTDDALAELTPIAANWFAAEDITSAFYGTELRLASDARRFDLSPAWASCVGLAPALELLADLGEAALGAHNVALANRFCAALGLPPTDSAIVSVAVDAKAQQVLADAGIVAAMRAGRMRCAFHLSTDAADVDRAVEEIGPYLRDANLEEAVRVPGDR"
result = "not soluble"


###

- EXPERIMENTAL DETAILS: soluble on expression in E. coli; label from the status in PepcDB or PDB records
MEASURE: soluble on expression in E. coli

[[record]]
seq = "MEKAYKILSVQENISHKKAKALIDSGLVSIGGKKLMVARKELPKNTHFSVQKVEKPSVIFEDENILALFKPPFIESYDLASFFKGWALLHRLDKETSGVVLLVKENSEFHLKAKKAFKDRAVKKEYLALTQGIIEEEREINAPILTFKTTKAFSKISKKGQEAVTIITPLKIINKKTLLKVGIKTGRTHQIRVHLKHINHPIIGDTLYNNEPSLAKRLMLHAHKIALLGYEFEAIAPKEFEILEHHHHHH"
measure = "soluble on expression in E. coli"
result = "soluble"

[[record]]
seq = "MAHHHHHHMLQLTVEDLTPEAIAALEVQCKAQAEKVNQLEEAMGLLQKELDDARKKYRSTSKAVQWRRLMAEVENDEDIANITVMMQEALADFYKTMQPPDDYDESREGISFCDTDDYADLTSVETKVDEFLLAIRRLVGENCASPEDDGDRRHQRRRALLMLLVLTINAARITDTPTEDAASLMEEQQDNIASLWQTLLHTDSGLVEAEKSEWKDIVSSFLGPPYDTST"
measure = "soluble on expression in E. coli"
result = "soluble"


###

- EXPERIMENTAL DETAILS: soluble on expression in E. coli; label from the status in PepcDB or PDB records
MEASURE: soluble on expression in E. coli

[[record]]
seq = "GATNEVNVDAIKQLYMDCKNEADKFDVLTELYGLMTIGSSIIFVATKKTANVLYGKLKSEGHEVSILHGDLQTQERDRLIDDFREGRSKVLITTNVLARGIDIPTVSMVVNYDLPTLANGQADPATYIHRIGRTGRFGRKGVAISFVHDKNSFNILSAIQKYFGDIEMTRVPTDDWDEVEKIVKKVLKD"
result = "soluble"

[[record]]
seq = "TQLHATRQAIVEAGQAIKMDKNGVQKLPVLNIYNEQQKWQKHQLMVENLPLNQVLQELDRNYKGKIIFNDAALQHVRVNAVLPLDQTTESLKLLATVFPDLKIKQIMPFVVMVSLK"
result = "not soluble"

[[record]]
seq = "MGSDKIHHHHHHMKVKIGDLTKIKTGKLDANVSSEDGKYPFFTCSKEPLKISTYSYDCECVLVAGNGDLNVKYYNGKFDAYQRTYIIEANGSGKLYMPYLYYFMEDYIDELRKQAIGGVIKYIKLANLTDALIELPSVDEQKSIVEILKKVKGILDKRNDEIRELDNLIKARFVEMFGDPRSNPFGFEKKRLKDTCKVITGNTPSRAIEEYYGDYIEWIKTDNIVSGILNPTQATESLSEKGMNVGRTVEKDSILMACIAGSIASIGRVCITDRTVAFNQQINAVVPEQYNILFLYVLFQMSKDYLVEDINMALKGILSKSKLEEKEFIIPPMDLQEQFSDFVKQVDKSKFDTMTFAPIYAIINLYLHTYFYQGRR"
result = "not soluble"

[[record]]
seq = "SFTSQQWKHLSNDFLKTQQEKRHSWFKASGTIKKFRAGLSIFSPIPKSPSFPIIQDSMLKGKLGVPELRVGRLMNRSISCTMKNPKVEVFGYPPSPQVSGHCKNIPTLEYGFLVQIMKYAEQRIPTLNEYCVVCDEQHVFQNGSMLKPAVCTRELCVFSFYTLGVMSGAAEEVATGAEVVDLLVAMCRAALESPRKSIIFEPYPSVVDPTDPKTLAFNPKKKNYERLQKALDSVMSIREMTQGSYLEIKKQMDKLDPLAHPLLQWIISSNRSHIVKLPLSRLKFMHTSHQFLLLSSPPAKEARFRTAKKLYGSTFAFHGSHIENWHSILRNGLVNASYTKLQEWEKDSTGCPPRMSWSRDTTG"
result = "soluble"

[[record]]
seq = "MGHHHHHHSHMVRKQSPYEDVQKQSRQHDPYKIIEPTPKKYLEGSAYEVIYNHLSYKHEILDKYIETNTAVFWIKKDDIFSVATILRHLGYECLSEMSAIDLCAKKGHFELFYQFVGFSDSCKNRRRVRVKCVLLPNESVDSLSFLYRSANWSEREAYDMLGIVFDKHPYLKRLIMPHDWVGHPLLRSYPLKGDEFAQWYEVDKIFGKEYREVVGKEQRDSARVDEKDTFNFAKIGYEQGKGEELKEVEEKHAFKKIPFVKDLHKIAPTILKKRL"
result = "soluble"

[[record]]
seq = "DLDLEMLAPYIPMDDDFQLR"
result = "soluble"

[[record]]
seq = "MGSDKIHHHHHHVVLAVVVGRRTASLALRGRGGRSKGGIHLPQNRIRFGSVGCRDLRSQLRRLIEDETMSEPAEAFYLPLGDNRYEPTRATESPWDSQAQHGGPPTALLGHLLDTAAGPDKRLARITADFLGAIPRRPFRVDTVEIRPGRRIALLEARMVFDDRPAVVARAWAIETGPTPPATGEQLHPPALADADPALDLTGWGYGEAIEWRYTRGGYGTADSAADVWTRVRIPLIAGEKLTGLARTLVVADSANGVSAALPMEHWLFIPPSITVTLARFPDTEWVHMACRSHLSPDGLGVSHATLSDTDGYLGEVSQPLLVRPR"
result = "not soluble"


###

- EXPERIMENTAL DETAILS: soluble on expression in E. coli; label from the status in PepcDB or PDB records
MEASURE: soluble on expression in E. coli

[[record]]
seq = "MIRLSEQSPLGTGRHRKCYAHPEDAQRCIKIVYHRGDGGDKEIRRELKYYAHLGRRLKDWSGIPRYHGTVETDCGTGYVYDVIADFDGKPSITLTEFAEQCRYEEDIAQLRQLLKQLKRYLQDNRIVTMSLKPQNILCHRISESEVIPVVCDNIGESTLIPLATWSKWCCLRKQERLWKRFIAQPALAIALQKDLQPRESKTLALTSREALEHHHHHH"
result = "not soluble"

[[record]]
seq = "RMNLKEAAKKAENKSDFVNHVLPHYCNIMFGLIETRSAFLHEKSNFFEGFLTKEGLINEDRFAPMFGIYGMAEAVDILMEKEGIEAKYGHDEIANQLGHAISKQLSEIVDATDVKYGYHGKALLHAQGGISLDIDVTPGVRIPYGTEPDPVSYVQATVGHHQYYTSGISDILTIDETVKSNPEAMFNLAKGALQLGYREFTANVASNDLVRITGYMVKLSDIAKYDAEGSRTNTTFL"
result = "not soluble"

[[record]]
seq = "DIELTQTPVSLAASLGDRVTISCRASQDINNFLNWYQQKPDGTIKLLIYYTSRLHAGVPSRFSGSGSGTDYSLTISNLEPEDIATYFCQHHIKFPWTFGAGTKLEIK"
result = "soluble"

[[record]]
seq = "SISKEEILKPIWYAFTALDLDRNGKVSKSQLKVLSHNLCTILKIPHNTSALEEHFKDDDEGPVSTQGYMPYLNTFILSKIQPNFDFVELNKMCWTLSAPKHINTMNLLMSEKDAFRVWCIFNFLSEDKYPLTIVTEELEYFLRKLLTAMGCSWNEGRFEDYKMHLNAKTWKHKVSKHEGLLKLVQPGGKTPSKMTNWGQAAFTESELNELEKMWQVNKNRSEEE"
result = "soluble"

[[record]]
seq = "MSLKVHGVILMNIEEWEEYRYVEAGIKESITLIEDPGLKKMVEHVCHSGGKRIRPIILLLVSEICSGSYSRSLNAALAVEMMHSASLIHDDLLDQGLVRRNLPSAPEKFGPSGALLCGDYLIAKSIAFISPYGEKVIQDFGKAGMDMAEGEVLDLKLEDESFGENDYFKCIYKKTASLFAISASIGAYTGGAEEELAERFSHFGNALGTAYQIVDDILEFLEVVEGKESKFTSETLPHIYMKSTSKEEALKKSIDCVKLHVAAAKETLETFRECPARDKLFQITDYITVDMLENLEGHHHHHH"
result = "soluble"

[[record]]
seq = "MSLQKLAVFDFDSTLVNAETIESLARAWGVFDEVKTITLKAMNGETDFHKSLILRVSKLKNMPLKLAKEVCESLPLFEGALELVSALKEKNYKVVCFSGGFDLATNHYRDLLHLDAAFSNTLIVENDALNGLVTGHMMFSHSKGEMLLVLQRLLNISKTNTLVVGDGANDLSMFKHAHIKIAFNAKEVLKQHATHCINEPDLALIKPLIEGHHHHHH"
result = "soluble"

[[record]]
seq = "MGSDKIHHHHHHMYRKDLDHYLKQRLPKAVFLYGEFDFFIHYYIQTISALFKCDNPDIETSLFYASDYEKSQIATLLEQDSLFGGSSLVVLKLDFALHKKFKENDINLFLKALERPSHNRLIIGLYNAKSDTTKYKYTSDAIVKFFQKSPLKDEAICARFFIPKTWESLKFLQERANFLHLDISGHLLNALFEINNEDLGVSFNDLDKLAVLNAPITLEDIQELSSNAGDMDLQKLILGLFLKKSALDIYDYLLKEGKKDADILRGLERYFYQLFLFFAHIKTTGLMDAKEVLGYAPPKEIAENYAKNALRLKEAGYKRVFEIFRLWHIQSMQGQKELGFLYLTSIQKIINP"
result = "not soluble"

[[record]]
seq = "MSLHQFQQDNQYFIFNFDRTFEQATEFFQAEFWQKQERVIGSAKGRGITYFLQTEDWFGVNCALRHYYRGGLWGKLNKDRYRFSALETTRSFAEFHLLQRLYEAGLPVPKPIAARIQKGKLGICYQADILTEKIENAQDLTALLQTQTLPKETWMQIGRLIRKLHDLQICHTDLNAHNILLQQTEQGQKCWLLDFDKCGEKSADFWKVQNLNRLKRSFEKEVGRMNIQFTEQNWADLTSAYHQEGHHHHHH"
result = "soluble"

[[record]]
seq = "MNVTSKPGELVPESDVAAIMRGTHGDPFRVLGMHGGGGAPLSVRVFAPQAAEVAVLGQGGEVLAPLERIGAEGFFAGTVPGEEKFPYRLRFVSGPHEWEADDPYRFPEVLG"
result = "not soluble"

[[record]]
seq = "MGSDKIHHHHHHMTHPSVDQENLPQTASLPENIIEAAITWSIRLDYNDPTPETRQSFDQWLHADPLHRLAWQRVDSLNNLRNDCRSLPSRLAFDTLQEVDSRRQSRKLSRRNAMKLLSLAGITIATGWTVREHTPWQRLLADASTVTGEQRVLHLTDGTVVVLNTDSAVSFDLTEAQRLIVLQRGEMHITTGPDSEVSARIGRKRPFRVRTPFGELQALGTRFVVRLDEQHARVSVQEGAVELHPSAGGSSAIVQAGESRRLTGSSILPEADRYFEEDGWVSGVIAGKNIRLADLVAELSRYRPGYIVCDERVADLPISGIFHVKDTDKALQFLAQTQPVSVMYRTRFWVIVGPKSLYR"
result = "not soluble"

[[record]]
seq = "MTSVNLSYPIGEYKPRESISKEQKDKWIQVLEEVPAKLKQAVEVMTDSQLDTPYRDGGWTVRQVVHHLADSHMNSYIRFKLSLTEETPAIRPYDEKAWSELKDSKTADPSGSLALLQELHGRWTALLRTLTDQQFKRGFYHPDTKEIITLENALGLYVWHSHHHIAHITELSRRMGWS"
result = "soluble"

[[record]]
seq = "MEQKYEEDIQKLQQEIEMLEAEQEETLRSIFVQHGDRLQQGVKSACEERGGGGAQQHTLSKLITEVRELEKDLRRQTEINGITLNECFVKTLHKSERKLIQQLRLAGHCGLLLFQVEFAVTEIQEDNVLHRRVTELNIVVDGVEFKDFSAFVSRVEDTKDLLLFFRTLRTFSERCEDRRQTFQHFQEKYPDVVNLPEGCRSEIMIIRSPQLPGISMTLFWKIHVSKEGVVKPLLDLLLKMPDQALELDTKKVMEKASDYFQSLLQLLGVEASIEGLIRTVCS"
result = "not soluble"

